# assay_summary: Single-dose plasma PK of Compound A in subjects with OSA
# Assay type: in vivo, human
# test_parameters: human, plasma, intravenous, 112 mg, 112 mg single dose, subjects with OSA, plasma, mean (PK set); read-out: Vss

smiles_structure: COC(=O)N1CCC[C@H](NS(C)(=O)=O)[C@@H]1CO[C@H]1CC[C@@H](c2ccccc2)CC1
Vd: 139 L

---

# assay_summary: Plasma PK of Compound A after a single 9-hour IV infusion in sleep-deprived healthy male subjects
# Type: in vivo, human
# test_parameters: male, human, plasma, iv, 112 mg, 112 mg [HD] single 9-hour IV infusion; read-out: AUClast (GM)
endpoint: AUC(0-t) (ng·h/mL)

smiles_structure: COC(=O)N1CCC[C@H](NS(C)(=O)=O)[C@@H]1CO[C@H]1CC[C@@H](c2ccccc2)CC1
assay_result: 2300

---

# assay_summary: Multiple-dose plasma PK of IV Compound A in patients with NT2
# Type: in vivo, human
# test_parameters: human, plasma, intravenous, 44 mg, Cmpd A 44 mg; Day 1; read-out: Cmax Geo mean
endpoint: Cmax (ng/mL)

smiles_structure: COC(=O)N1CCC[C@H](NS(C)(=O)=O)[C@@H]1CO[C@H]1CC[C@@H](c2ccccc2)CC1
unit_of_measurement: ng/mL
assay_result: 73.9

---

# assay_summary: Plasma PK of Compound A after a single 9-hour IV infusion in sleep-deprived healthy male subjects
# Type: in vivo, human
# test_parameters: male, human, plasma, iv, 44 mg, 44 mg 9-h IV infusion; 1 h post infusion start; read-out: Plasma concentration (Median)
# Method: This was a phase 1b, single-center, randomized, double-blind, double-dummy, placebo- and active-controlled, 4-period Williams design crossover study to evaluate the PK, PD, and safety of Compound A in sleep-deprived healthy volunteers. Compound A was administered as a 9-hour IV infusion. […] During the day before dosing on Day 1, participants were administered the KSS at scheduled timepoints. […] Subject's vital signs, including BP, were monitored during the dosing and testing period. […]
endpoint: concentration at 1 h (ng/mL)

smiles_structure: COC(=O)N1CCC[C@H](NS(C)(=O)=O)[C@@H]1CO[C@H]1CC[C@@H](c2ccccc2)CC1
assay_result: 65.5

---

# assay_summary: Plasma PK of Compound A after a single 9-hour IV infusion in sleep-deprived healthy male subjects
# Type: in vivo, human
# test_parameters: male, human, plasma, iv, 44 mg, 44 mg [LD] single 9-hour IV infusion; read-out: Cmax (Median)

smiles_structure: COC(=O)N1CCC[C@H](NS(C)(=O)=O)[C@@H]1CO[C@H]1CC[C@@H](c2ccccc2)CC1
Cmax: 102 ng/mL

---

# assay_summary: Single-dose plasma PK of Compound A in subjects with OSA
# Assay type: in vivo, human
# test_parameters: human, plasma, intravenous, 44 mg, 44 mg single dose, subjects with OSA, plasma, mean (PK set); read-out: Vz

smiles_structure: COC(=O)N1CCC[C@H](NS(C)(=O)=O)[C@@H]1CO[C@H]1CC[C@@H](c2ccccc2)CC1
Vd, L: 278

---

# assay_summary: Multiple-dose plasma PK of IV Compound A in patients with NT2
# Type: in vivo, human
# test_parameters: human, plasma, intravenous, 44 mg, Cmax Geo Mean, Cmpd A 44 mg; Day 7
endpoint: Cmax (ng/mL)

smiles_structure: COC(=O)N1CCC[C@H](NS(C)(=O)=O)[C@@H]1CO[C@H]1CC[C@@H](c2ccccc2)CC1
unit_of_measurement: ng/mL
assay_result: 76.4
